measurement-notes: Phase 1 clinical trial, Part II multiple ascending doses over 14 days, plasma pharmacokinetics
Format: in vivo, human (healthy male volunteers)
experimental-parameters: male, human, plasma, oral, 20 mg, 20 mg once daily, Day 1, geom. mean (geom. % CV), n = 8
measured-parameter: Cmax (ng/mL)
Numbers only, in ng/mL.

Exam item: Report Cmax for COc1ccc2c(c1)CN(Cc1ccc(C(=O)O)cc1)CCS2.O=C(O)/C=C/C(=O)O [Compound I]
Marked response: 2200

* * *

measurement-notes: Phase 1b study in RYR1-Related Myopathy patients, plasma pharmacokinetics
Format: in vivo, human (RYR1-Related Myopathy patients)
experimental-parameters: human, plasma, po, 200 mg, single oral 200 mg; read-out: TMax, all participants
measured-parameter: Tmax

Exam item: Report Tmax for COc1ccc2c(c1)CN(Cc1ccc(C(=O)O)cc1)CCS2.O=C(O)/C=C/C(=O)O
Marked response: 5 to 6 h
